assay type: cell-based, human; conditions: human, Cell viability (%)
Bridge positions count the residues as written; N and C are the ends. Square brackets hold non-standard residues; d marks the D form. Peptide text beside a SMILES is read from it. Pro(cis-4-guanidino) = NC(N)=N[C@@H]1CN[C@H](C(=O)O)C1; Phe(4-guanidino) = N=C(N)Nc1ccc(C[C@H](N)C(=O)O)cc1

molecule	viability at 24 h, 25 µM / %
CC[C@H](C)[C@H](NC(=O)[C@H](CCCNC(=N)N)NC(=O)[C@H]1CCC(=O)NCCCC[C@H](NC(=O)[C@H](Cc2ccccc2)NC(=O)[C@H](Cc2c[nH]c3ccccc23)NC(=O)[C@@H]2CCCN2C(=O)[C@@H](NC(=O)[C@@H](N)Cc2ccccc2)C(C)C)C(=O)N[C@@H](CCCCN)C(=O)N[C@@H](Cc2ccc(NC(=N)N)cc2)C(=O)N[C@H](CC(C)C)C(=O)N1)C(=O)N[C@@H](CC(C)C)C(N)=O [Peptide 10, FVPWF[KK(p-guanidino)Fle]RIL] (H-FVPWFKK[Phe(4-guanidino)][dL][dE]RIL-NH2; lactam 6-10)	106
CC[C@H](C)[C@H](NC(=O)[C@H](CCCNC(=N)N)NC(=O)[C@H]1CCC(=O)NCCCC[C@H](NC(=O)[C@H](Cc2ccccc2)NC(=O)[C@H](Cc2c[nH]c3ccccc23)NC(=O)[C@@H]2C[C@H](NC(=N)N)CN2C(=O)[C@@H](NC(=O)[C@@H](N)Cc2ccccc2)C(C)C)C(=O)N[C@@H](CCCCN)C(=O)N[C@@H](Cc2ccccc2)C(=O)N[C@H](CC(C)C)C(=O)N1)C(=O)N[C@@H](CC(C)C)C(N)=O [Peptide 7, FV(4-guanidino)PWF[KKFle]RIL] (H-FV[Pro(cis-4-guanidino)]WFKKF[dL][dE]RIL-NH2; lactam 6-10)	85

====

Format: cell-based, human
Conditions: human, Cell viability (%)
Experimental: For the evaluation of peptides’ cytotoxicity, the human immortalized keratinocytes (HaCaT cells), purchased from AddexBio (San Diego, CA, USA), and BEAS-2B were used. […] The purple formazan crystals were dissolved using acidified 2-propanol and a microplate reader (Infinite M200; Tecan, Salzburg, Austria) was used to measure the absorbance of each well at 570 nm. […]
Bridge positions count the residues as written; N and C are the ends. Square brackets hold non-standard residues; d marks the D form. Peptide text beside a SMILES is read from it. Pro(cis-4-guanidino) = NC(N)=N[C@@H]1CN[C@H](C(=O)O)C1

molecule	viability at 24 h, 6.25 µM [%]
CC[C@H](C)[C@H](NC(=O)[C@H](CCCNC(=N)N)NC(=O)[C@H]1CCC(=O)NCCCC[C@H](NC(=O)[C@H](Cc2ccccc2)NC(=O)[C@H](Cc2c[nH]c3ccccc23)NC(=O)[C@@H]2C[C@H](NC(=N)N)CN2C(=O)[C@@H](NC(=O)[C@@H](N)Cc2ccccc2)C(C)C)C(=O)N[C@@H](CCCCN)C(=O)N[C@@H](Cc2ccccc2)C(=O)N[C@H](CC(C)C)C(=O)N1)C(=O)N[C@@H](CC(C)C)C(N)=O [Peptide 7, FV(4-guanidino)PWF[KKFle]RIL] (H-FV[Pro(cis-4-guanidino)]WFKKF[dL][dE]RIL-NH2; lactam 6-10)	98

====

format: cell-based, human; conditions: human, Cell viability (%)
Bridge positions count the residues as written; N and C are the ends. Square brackets hold non-standard residues; d marks the D form. Peptide text beside a SMILES is read from it. * marks the point of attachment. Butanoyl(4-guanidino) = N=C(N)NCCCC(=O)*; Propanoyl(3-guanidino) = N=C(N)NCCC(=O)*

compound	viability at 2 h, 3.12 µM
CC[C@H](C)[C@H](NC(=O)[C@H](CCCNC(=N)N)NC(=O)[C@H]1CCC(=O)NCCCC[C@H](NC(=O)[C@H](Cc2ccccc2)NC(=O)[C@H](Cc2c[nH]c3ccccc23)NC(=O)[C@@H]2CCCN2C(=O)[C@@H](NC(=O)[C@H](Cc2ccccc2)NC(=O)CCCNC(=N)N)C(C)C)C(=O)N[C@@H](CCCCN)C(=O)N[C@@H](Cc2ccccc2)C(=O)N[C@H](CC(C)C)C(=O)N1)C(=O)N[C@@H](CC(C)C)C(N)=O [Peptide 5, guanidino-GABA-FVPWF[KKFle]RIL] ({Butanoyl(4-guanidino)}-FVPWFKKF[dL][dE]RIL-NH2; lactam 6-10)	128%
CC[C@H](C)[C@H](NC(=O)[C@H](CCCNC(=N)N)NC(=O)[C@H]1CCC(=O)NCCCC[C@H](NC(=O)[C@H](Cc2ccccc2)NC(=O)[C@H](Cc2c[nH]c3ccccc23)NC(=O)[C@@H]2CCCN2C(=O)[C@@H](NC(=O)[C@H](Cc2ccccc2)NC(=O)CCNC(=N)N)C(C)C)C(=O)N[C@@H](CCCCN)C(=O)N[C@@H](Cc2ccccc2)C(=O)N[C@H](CC(C)C)C(=O)N1)C(=O)N[C@@H](CC(C)C)C(N)=O [Peptide 4, guanidino-βAla-FVPWF[KKFle]RIL] ({Propanoyl(3-guanidino)}-FVPWFKKF[dL][dE]RIL-NH2; lactam 6-10)	100%
